- measured target: furin, P09958;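 also: purified furin at 1:10 enzyme:substrate in 50 mM HEPES pH 7.5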
- Sequence (P09958 whole entry): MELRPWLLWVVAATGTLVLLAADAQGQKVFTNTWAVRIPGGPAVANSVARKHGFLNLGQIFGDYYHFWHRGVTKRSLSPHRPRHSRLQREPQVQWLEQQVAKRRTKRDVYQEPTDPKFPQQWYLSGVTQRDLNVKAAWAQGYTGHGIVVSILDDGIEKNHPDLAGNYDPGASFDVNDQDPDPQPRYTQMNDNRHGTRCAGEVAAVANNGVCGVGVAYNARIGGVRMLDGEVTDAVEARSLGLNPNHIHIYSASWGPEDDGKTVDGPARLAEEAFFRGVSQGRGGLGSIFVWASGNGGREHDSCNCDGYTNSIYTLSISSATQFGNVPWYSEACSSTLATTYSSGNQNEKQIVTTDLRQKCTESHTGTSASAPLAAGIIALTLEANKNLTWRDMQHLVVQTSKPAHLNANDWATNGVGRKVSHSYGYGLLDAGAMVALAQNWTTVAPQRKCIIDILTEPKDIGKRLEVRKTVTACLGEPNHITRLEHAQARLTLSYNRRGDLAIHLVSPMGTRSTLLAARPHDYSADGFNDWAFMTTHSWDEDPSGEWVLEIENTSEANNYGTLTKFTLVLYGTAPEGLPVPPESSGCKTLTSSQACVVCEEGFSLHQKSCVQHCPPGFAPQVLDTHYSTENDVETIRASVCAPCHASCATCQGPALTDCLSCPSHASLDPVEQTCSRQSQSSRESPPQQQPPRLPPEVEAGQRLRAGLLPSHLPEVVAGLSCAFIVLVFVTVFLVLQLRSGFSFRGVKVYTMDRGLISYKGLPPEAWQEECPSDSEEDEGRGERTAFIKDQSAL
- assay procedure: furin cleavage Z-score vs untreated control; higher = more cleavage, active = 3.5 or more, inactive = 1 or less, 8 variable residues between constant flanks
- experimental conditions: 15 min
The other results are listed elsewhere or left out. How many sequences the whole screen found active is unknown.
// one of active, inactive, no free text

A selection of reference data follows.
{"columns": ["chain", "classification"],
 "data": [
  ["CARGPRAVSTAGNASASA [FS-2334]", "inactive"],
  ["CARRSRSSYTAGNASASA [FS-3070]", "inactive"],
  ["CARRSRSPRTAGNASASA [FS-3069]", "active"],
  ["CARAARGTIGAGNASASA [FS-2879]", "inactive"],
  ["CARFKRAIFQAGNASASA [FS-3154]", "active"]
]}

// switching to the query sequence
q: Hi, sorry to bother you, what did the test record for CARRSRKVGSAGNASASA [FS-2455] ?
a: inactive
